Reference for the values: patent US9693556B2

# Test system: Amaranthus retoflexus (AMARE)
# test.description: Pre-emergence herbicidal glasshouse test on Amaranthus retoflexus
# Assay type: in vivo
# experimental.setup: pre-emergence; 1000 g/h; evaluated after 13 days
As shown below, each of these compounds has a reported PRE Application AMARE herbicidal damage (five point scale) value.

Cc1ccc(-c2c(C(F)(F)F)ccn(-c3cnn(C)c(=O)c3O)c2=O)cc1[N+](=O)[O-] [Compound 7.027] ... 5 (5=80-100% damage)
Cn1ncc(-c2ccc(Br)cc2S(C)(=O)=O)c(O)c1=O [Compound 1.081] ... 5 (5=80-100% damage)
Cn1ncc(-c2cc3cccnc3nc2C(F)(F)F)c(O)c1=O [Compound 1.039] ... 5 (5=80-100% damage)
Cc1cc(C#N)ccc1-c1cnn(C)c(=O)c1O [Compound 1.084] ... 1 (1=0-19% damage)
COCn1ncc(-c2ccc(C(F)(F)F)cc2[S+](C)[O-])c(O)c1=O (stereo not shown) [Compound 1.146] ... 5 (5=80-100% damage)

Query :: // PRE Application AMARE herbicidal damage (five point scale) lookup, key: Cc1cccc(-c2c(C(F)(F)F)ccn(-c3cnn(C)c(=O)c3O)c2=O)c1 [Compound 1.038]
Result :: 5 (5=80-100% damage)

Query :: So what does the record say about PRE Application AMARE herbicidal damage (five point scale) for Cn1ncc(-c2ccccc2[S+]([O-])C(F)(F)F)c(O)c1=O (stereo not shown) [Compound 1.055] ?
Result :: 5 (5=80-100% damage)

Query :: Quick one: PRE Application AMARE herbicidal damage (five point scale) of C#Cc1ccc(-c2cnn(C)c(=O)c2O)c(S(C)(=O)=O)c1 [Compound 2.028] ?
Result :: 5 (5=80-100% damage)

Query :: // PRE Application AMARE herbicidal damage (five point scale) lookup, key: COc1ccc(-c2c(C(F)(F)F)ccn(-c3cnn(C)c(=O)c3O)c2=O)cc1 [Compound 7.033]
Result :: 5 (5=80-100% damage)

Query :: # PRE Application AMARE herbicidal damage (five point scale) lookup, item C#Cn1ncc(-c2ccc(Cl)cc2S(C)(=O)=O)c(O)c1=O [Compound 2.011]
Result :: 5 (5=80-100% damage)

Query :: Which PRE Application AMARE herbicidal damage (five point scale) value is on record for Cn1ncc(-c2ccc(C(F)(F)F)nc2Cl)c(O)c1=O [Compound 4.014] ?
Result :: 5 (5=80-100% damage)

---

# Tested on: Amaranthus retoflexus (AMARE)
# test.description: Pre-emergence herbicidal glasshouse test on Amaranthus retoflexus
# Format: in vivo
# experimental.setup: pre-emergence; 1000 g/h; evaluated after 13 days
experimental.readout: PRE Application AMARE herbicidal damage (five point scale)

Solved cases (8 shown):
COc1ccc(-c2cnn(C)c(=O)c2O)c(C(F)(F)F)c1 ... 4 (4=60-79% damage)
CC(C)c1cccc(-c2c(C(F)(F)F)ccn(-c3cnn(C)c(=O)c3O)c2=O)c1 ... 5 (5=80-100% damage)
COc1cccc(-c2c(C(F)(F)F)ccn(-c3cnn(C)c(=O)c3O)c2=O)c1 ... 5 (5=80-100% damage)
Cn1ncc(-c2ccc(C(F)(F)F)nc2Oc2ccccc2)c(O)c1=O ... 5 (5=80-100% damage)
CS(=O)(=O)c1ccc(-c2cn[nH]c(=O)c2O)c(Cl)c1C1=NOCC1 ... 4 (4=60-79% damage)
Cn1ncc(-c2cc(Cl)ccc2Cl)c(O)c1=O ... 1 (1=0-19% damage)
Cn1ncc(-c2cccn(-c3cccc(Cl)c3)c2=O)c(O)c1=O ... 3 (3=40-59% damage)
Cn1ncc(-c2cccn(-c3cccc([N+](=O)[O-])c3)c2=O)c(O)c1=O ... 2 (2=20-39% damage)

Query :: Need PRE Application AMARE herbicidal damage (five point scale), item Cc1c(-c2cnn(C(C)C)c(=O)c2O)ccc(S(C)(=O)=O)c1C1=NOCC1
Result :: 5 (5=80-100% damage)

---

# System: Alopecurus myosuroides (ALOMY)
# test.description: Post-emergence herbicidal glasshouse test on Alopecurus myosuroides
# Assay type: in vivo
# experimental.setup: post-emergence; 1000 g/h; evaluated after 13 days
experimental.readout: POST Application ALOMY herbicidal damage (five point scale)

CC#Cc1ccc(-c2cnn(C)c(=O)c2O)c(S(C)(=O)=O)c1 ... 5 (5=80-100% damage)
COc1ccc(-c2cnn(C)c(=O)c2O)c(Cl)c1 ... 1 (1=0-19% damage)
COCCOc1c(S(C)(=O)=O)ccc(-c2cnn(C)c(=O)c2O)c1Cl ... 4 (4=60-79% damage)

Query :: Which POST Application ALOMY herbicidal damage (five point scale) is reported with Alopecurus myosuroides (ALOMY) for this entry: Cn1ncc(-n2ccc(C(F)(F)F)cc2=O)c(O)c1=O ?
Result :: 1 (1=0-19% damage)

Query :: Give POST Application ALOMY herbicidal damage (five point scale) (Alopecurus myosuroides (ALOMY)) of the following molecule: Cn1ncc(-c2ccc(S(C)(=O)=O)c(COCC(F)(F)F)c2Cl)c(O)c1=O
Result :: 5 (5=80-100% damage)

---

# Tested on: Alopecurus myosuroides (ALOMY)
# test.description: Post-emergence herbicidal glasshouse test on Alopecurus myosuroides
# Format: in vivo
# experimental.setup: post-emergence; 1000 g/h; evaluated after 13 days
# reported POST Application ALOMY herbicidal damage (five point scale); entries follow

CCCC[S+]([O-])c1ccccc1-c1cnn(C)c(=O)c1O (stereo not drawn) ... 1 (1=0-19% damage)

From here, focus on the item given below.
Query :: Quick one: POST Application ALOMY herbicidal damage (five point scale) for Cn1ncc(-c2cccn(-c3cccc(C#N)c3)c2=O)c(O)c1=O ?
Result :: 1 (1=0-19% damage)

---

The following compounds are listed with their measured POST Application SETFA herbicidal damage (five point scale) values.
# System: Setaria faberi (SETFA)
# test.description: Post-emergence herbicidal glasshouse test on Setaria faberi
# Type: in vivo
# experimental.setup: post-emergence; 1000 g/h; evaluated after 13 days

Take a look at these entries with their results.
Cn1ncc(-c2ccc(S(C)(=O)=O)cc2Cl)c(O)c1=O ... 1 (1=0-19% damage)
CC[S+]([O-])c1ccccc1-c1cnn(C)c(=O)c1O (stereo not drawn) ... 5 (5=80-100% damage)
Cn1ncc(-c2cccn(CC(F)(F)F)c2=O)c(O)c1=O ... 1 (1=0-19% damage)
COCn1ncc(-c2ccc(S(C)(=O)=O)c(C3=NOCC3)c2C)c(O)c1=O ... 5 (5=80-100% damage)
Cc1ccc(-n2cccc(-c3cnn(C)c(=O)c3O)c2=O)cc1 ... 2 (2=20-39% damage)
Cn1ncc(-c2ccccc2[S+](C)[O-])c(O)c1=O (stereo not drawn) ... 5 (5=80-100% damage)

Query :: Quick one: POST Application SETFA herbicidal damage (five point scale) for COC(=O)Oc1c(-c2ccc(C(F)(F)F)cc2S(C)(=O)=O)cnn(C)c1=O ?
Result :: 5 (5=80-100% damage)

Query :: Any idea what POST Application SETFA herbicidal damage (five point scale) was measured for CN(C)c1nc(C(F)(F)F)ccc1-c1cnn(C)c(=O)c1O ?
Result :: 2 (2=20-39% damage)

Query :: POST Application SETFA herbicidal damage (five point scale) lookup needed for Cn1ncc(-c2ccc(F)cc2S(C)(=O)=O)c(O)c1=O , thanks.
Result :: 5 (5=80-100% damage)

Query :: Need POST Application SETFA herbicidal damage (five point scale), item Cn1ncc(-c2ccccc2S(=O)(=O)C(F)(F)F)c(O)c1=O
Result :: 5 (5=80-100% damage)

Query :: Looking for the measured POST Application SETFA herbicidal damage (five point scale) of Cc1ccc(S(=O)(=O)Oc2c(-c3ccc(C(F)(F)F)cc3S(C)(=O)=O)cnn(C)c2=O)cc1 , can you help?
Result :: 5 (5=80-100% damage)

---

The following compounds are shown together with reported PRE Application AMARE herbicidal damage (five point scale) values.
# Tested on: Amaranthus retoflexus (AMARE)
# test.description: Pre-emergence herbicidal glasshouse test on Amaranthus retoflexus
# Assay type: in vivo
# experimental.setup: pre-emergence; 1000 g/h; evaluated after 13 days

Worked examples follow.
Cn1ncc(-n2ccc(C(F)(F)F)c(-c3cccc(C#N)c3)c2=O)c(O)c1=O ... 5 (5=80-100% damage)
Cn1ncc(-c2cccn(-c3cccc(C#N)c3)c2=O)c(O)c1=O ... 1 (1=0-19% damage)

Query :: Could you tell me which PRE Application AMARE herbicidal damage (five point scale) is on file for Cc1ccc(F)cc1-c1c(C(F)(F)F)ccn(-c2cnn(C)c(=O)c2O)c1=O ?
Result :: 5 (5=80-100% damage)

Query :: // lookup PRE Application AMARE herbicidal damage (five point scale) for Cn1ncc(-n2cc(N3CCOCC3)c(C(F)(F)F)cc2=O)c(O)c1=O
Result :: 1 (1=0-19% damage)

---

# Tested on: Setaria faberi (SETFA)
# test.description: Post-emergence herbicidal glasshouse test on Setaria faberi
# Type: in vivo
# experimental.setup: post-emergence; 1000 g/h; evaluated after 13 days
Each item that follows carries a reported POST Application SETFA herbicidal damage (five point scale).

Please review the following examples before continuing.
CCS(=O)(=O)c1nc(C(F)(F)F)ccc1-c1cnn(C)c(=O)c1O ... 5 (5=80-100% damage)
CCn1ncc(-c2c(Cl)cccc2Cl)c(O)c1=O ... 2 (2=20-39% damage)

Turning now to a further compound:
Query :: Which POST Application SETFA herbicidal damage (five point scale) is reported for this compound? CCn1ncc(-c2ccc(C(F)(F)F)cc2S(C)(=O)=O)c(O)c1=O
Result :: 5 (5=80-100% damage)
